Experiment: Clearance in CD-1 mouse at 5 mg/kg, iv
Assay type: ADME, organism-based
Parameters: dose 5 mg/kg, route intravenous
Conditions: in vivo
PROPERTY_NAME: clearance (mL/min/kg)

>  <STRUCTURE_NOTATION>
CCO[C@H]1CN([C@H]2CC[C@@](O)(c3ccc4c(c3)OCO4)CC2)C[C@@H]1NC(=O)CNC(=O)c1cccc(C(F)(F)F)c1

>  <PROPERTY_NAME>
clearance

>  <REPORTED_VALUE>
85

$$$$

###

Assay: Cmax in BALB/c mouse at 10 mg/kg, po
Type: ADME, organism-based
Set-up: dose 10 mg/kg, route oral
Settings: in vivo

>  <STRUCTURE_NOTATION>
CCO[C@H]1CN([C@H]2CC[C@@](O)(c3ccc4c(c3)OCO4)CC2)C[C@@H]1NC(=O)CNC(=O)c1cccc(C(F)(F)F)c1

>  <Cmax>
0.961 µM

$$$$
